Provenance of the data: patent US20230257351A1

Catalogue of molecules with associated Rat P2X4 1321N1 Astrocytoma Cells (FLIPR Assay) avg Efficacy
Biological target: rat P2X4 (Rattus norvegicus, UniProt P51577)
Construct: expressed in transfected cells
Sequence (P51577 whole entry): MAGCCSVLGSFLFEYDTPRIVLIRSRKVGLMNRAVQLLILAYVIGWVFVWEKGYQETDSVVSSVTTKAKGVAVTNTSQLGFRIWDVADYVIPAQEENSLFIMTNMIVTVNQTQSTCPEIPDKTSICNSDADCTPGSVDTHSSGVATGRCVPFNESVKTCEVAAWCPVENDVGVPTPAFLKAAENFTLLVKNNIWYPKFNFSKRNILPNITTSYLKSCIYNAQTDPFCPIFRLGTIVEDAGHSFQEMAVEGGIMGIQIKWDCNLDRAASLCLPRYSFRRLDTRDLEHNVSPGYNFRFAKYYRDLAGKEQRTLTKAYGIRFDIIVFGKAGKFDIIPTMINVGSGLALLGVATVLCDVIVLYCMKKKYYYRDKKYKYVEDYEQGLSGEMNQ
Assay: FLIPR Method for Rat P2X4 1321N1 Astrocytoma Cells
Assay type: cell-based
Conditions: 1321N1 stably expressing rat P2X4; agonist MgATP 5 μM (EC80)
property.label: Rat P2X4 1321N1 Astrocytoma Cells (FLIPR Assay) avg Efficacy (%)

> print(dat)
                            structure.string  readout.number
 1  CC(=O)N(c1ccc(F)c(Cl)c1)c1cc(NC(=O)Cc2c(Cl)cccc2Cl)ccn1             100
 2  COc1ccc(N(C(C)=O)c2cc(NC(=O)Cc3c(Cl)cccc3Cl)ccn2)cc1F              97
 3  CC(=O)N(c1ccccc1)c1cc(NC(=O)Cc2ccccc2Cl)ccn1             100
 4  CC(=O)N(c1ccc(F)cc1)c1cc(NC(=O)Cc2c(Cl)cccc2C#N)ccn1              98
 5  CC(=O)N(c1cccc(C#N)c1)c1cc(NC(=O)Cc2ccccc2Cl)ccn1              93
 6  CC(=O)N(c1ccc(F)cc1)c1cc(NC(=O)Cc2cccc(C)c2C)ccn1              77
 7  COc1ccc(N(C(C)=O)c2cc(NC(=O)Cc3cccc(F)c3Cl)ccn2)cc1F              96
 8  CC(=O)N(c1ccc(C)cc1)c1cc(NC(=O)Cc2cccc(F)c2Cl)ccn1             100
 9  CC(=O)N(c1ccc(F)cc1)c1cc(NC(=O)Cc2ccccc2Cl)ccn1              90
10  CC(=O)N(c1cccc(Cl)c1)c1cc(NC(=O)Cc2c(F)cccc2Cl)ccn1              96
11  CC(=O)N(c1cc(NC(=O)Cc2cccc(F)c2Cl)ccn1)c1cc(F)ccc1Cl             100
12  CC(=O)N(c1cc(F)cc(F)c1)c1cc(NC(=O)Cc2c(Cl)cc(F)cc2Cl)ccn1              97
13  CC(=O)N(c1ccc(F)cc1)c1cc(NC(=O)Cc2ccc(F)cc2Cl)ccn1              96
14  CC(=O)N(c1cccc(C#N)c1)c1cc(NC(=O)Cc2c(F)cccc2Cl)ccn1              88
15  CC(=O)N(c1ccc(F)cc1)c1cc(NC(=O)Cc2cccc(F)c2C(F)(F)F)ccn1             100
16  CC(=O)N(c1cc(F)cc(F)c1)c1cc(NC(=O)Cc2ccc(F)cc2Cl)ccn1              94
17  CC(=O)N(c1ccc(Cl)c(F)c1)c1cc(NC(=O)Cc2ccc(F)cc2Cl)ccn1              81
18  CC(=O)N(c1ccc(F)c(F)c1)c1cc(NC(=O)Cc2ccccc2Cl)ccn1              82
19  CC(=O)N(c1ccc(F)c(F)c1)c1cc(NC(=O)Cc2ccc(F)cc2Cl)ccn1              89
20  CC(=O)N(c1cc(NC(=O)Cc2ccc(F)cc2Cl)ccn1)c1cccc(F)c1F              89
21  CC(=O)N(c1ccc(F)cc1)c1cc(NC(=O)Cc2c(C)cccc2C)ccn1              94
22  CC(=O)N(c1cccc(C(F)F)c1)c1cc(NC(=O)Cc2cccc(F)c2Cl)ccn1             100
23  CC(=O)N(c1ccc(F)cc1)c1cc(NC(=O)Cc2ccccc2OC(F)(F)F)ccn1              96
24  CC(=O)N(c1cccc(C(F)F)c1)c1cc(NC(=O)Cc2c(Cl)cccc2Cl)ccn1             100
25  CC(=O)N(c1ccc(F)c(Cl)c1)c1cc(NC(=O)Cc2ccc(F)cc2Cl)ccn1              96
26  CC(=O)N(c1ccc(F)cc1)c1cc(NC(=O)Cc2c(F)cccc2Cl)ccn1              75
27  CC(=O)N(c1ccc(F)cc1)c1cc(NC(=O)Cc2c(Cl)cccc2Cl)ccn1              98
28  CCCC(=O)N(c1ccc(F)cc1)c1cc(NC(=O)Cc2c(F)cccc2Cl)ccn1              98
29  CC(=O)N(c1cc(NC(=O)Cc2c(Cl)cccc2Cl)ccn1)c1cc(F)ccc1Cl              99
30  CC(=O)N(c1cc(NC(=O)Cc2ccc(F)cc2Cl)ccn1)c1ccc(F)cc1F              72
31  CC(=O)N(c1ccc(F)cc1)c1cc(NC(=O)Cc2c(F)cc(F)cc2Cl)ccn1              91
32  CC(=O)N(c1cc(F)cc(F)c1)c1cc(NC(=O)Cc2c(C)cccc2C)ccn1              97
33  CC(=O)N(c1ccc(F)c(F)c1)c1cc(NC(=O)Cc2ccccc2OC(F)(F)F)ccn1              99
34  CC(=O)N(c1ccc(F)c(F)c1)c1cc(NC(=O)Cc2c(Cl)cccc2Cl)ccn1              89

----------
Catalogue of compounds with associated pIC50
Molecular target: human P2X4 (Homo sapiens)
Sequence (Q99571 1-388): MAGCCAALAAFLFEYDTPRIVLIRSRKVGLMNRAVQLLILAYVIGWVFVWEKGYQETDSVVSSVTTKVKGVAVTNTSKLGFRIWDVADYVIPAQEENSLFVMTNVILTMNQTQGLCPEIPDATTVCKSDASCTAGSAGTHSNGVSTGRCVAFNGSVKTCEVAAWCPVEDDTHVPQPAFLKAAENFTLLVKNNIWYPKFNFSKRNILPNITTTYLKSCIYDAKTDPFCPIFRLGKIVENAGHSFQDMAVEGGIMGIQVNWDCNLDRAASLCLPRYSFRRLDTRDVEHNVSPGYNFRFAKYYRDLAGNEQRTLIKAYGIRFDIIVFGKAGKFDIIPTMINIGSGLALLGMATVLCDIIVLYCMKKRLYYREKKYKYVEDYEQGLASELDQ
Test: Human P2X4 HEK Cell FLIPR Assay
Settings: HEK293 stably expressing human P2X4; agonist Bz-ATP 3 μM (EC80); read-out: Human P2X4 HEK Cells (FLIPR Assay) avg IC50
pIC50: −log10 of the molar value.
property.label: pIC50

> print(dat)
                            structure.string  property.label  readout.number
 1  CC(=O)N(c1cc(F)cc(C#N)c1)c1cc(NC(=O)Cc2c(Cl)cccc2Cl)ccn1           pIC50            6.47
 2  CC(=O)N(c1ccc(F)cc1)c1cc(NC(=O)Cc2c(C)cccc2C)ccn1           pIC50            6.70
 3  CC(=O)N(c1cc(F)cc(F)c1)c1cc(NC(=O)Cc2cccc(F)c2Cl)cnn1           pIC50            6.35
 4  CC(=O)N(c1cc(NC(=O)Cc2c(Cl)cccc2Cl)ccn1)c1ccccc1Cl           pIC50            6.19
 5  CC(=O)N(c1cc(NC(=O)Cc2c(F)cccc2Cl)ccn1)c1ccc(F)cc1Cl           pIC50            6.32
 6  CC(=O)N(c1ccc(F)cc1)c1cc(NC(=O)Cc2c(F)cccc2Cl)ccn1           pIC50            6.51
 7  CC(=O)N(c1cc(F)cc(F)c1)c1cc(NC(=O)Cc2cccc(F)c2Cl)ccn1           pIC50            6.70
 8  CC(=O)N(c1cc(NC(=O)Cc2ccccc2Cl)ccn1)c1ccc(C)cc1C           pIC50            6.33
 9  CC(=O)N(c1cc(NC(=O)Cc2cccc(C(F)(F)F)c2Cl)ccn1)c1cc(F)ccc1Cl           pIC50            6.13
10  CC(=O)N(c1ccc(F)c(C#N)c1)c1cc(NC(=O)Cc2ccc(F)cc2Cl)ccn1           pIC50            6.32
11  CCCC(=O)N(c1ccc(F)cc1)c1cc(NC(=O)Cc2c(F)cccc2Cl)ccn1           pIC50            6.10
12  CC(=O)N(c1ccc(F)cc1)c1cc(NC(=O)Cc2ccc(F)cc2Cl)cnn1           pIC50            6.15
13  CCc1cc(Cl)c(CC(=O)Nc2ccnc(N(C(C)=O)c3ccc(F)c(F)c3)c2)c(Cl)c1           pIC50            6.04
14  CC(=O)N(c1cccc(F)c1)c1cc(NC(=O)Cc2c(F)cccc2Cl)cnn1           pIC50            6.17
15  COc1c(F)cc(N(C(C)=O)c2cc(NC(=O)Cc3c(Cl)cccc3Cl)ccn2)cc1F           pIC50            6.35
16  CC(=O)N(c1ccccc1)c1cc(NC(=O)Cc2ccc(F)cc2Cl)ccn1           pIC50            6.18
17  CC(=O)N(c1ccc(Cl)c(C#N)c1)c1cc(NC(=O)Cc2ccc(F)cc2Cl)ccn1           pIC50            6.20
18  CC(=O)N(c1cccc(F)c1)c1cc(NC(=O)Cc2cccc(F)c2Cl)cnn1           pIC50            6.31
19  CC(=O)N(c1ccc(F)c(F)c1)c1cc(NC(=O)Cc2ccccc2Cl)cnn1           pIC50            6.35
20  CC(=O)N(c1cc(NC(=O)Cc2cccc(F)c2Cl)ccn1)c1ccccc1F           pIC50            6.10
21  CC(=O)N(c1cc(C)cc(C#N)c1)c1cc(NC(=O)Cc2ccc(F)cc2Cl)ccn1           pIC50            6.21
22  CC(=O)N(c1cc(NC(=O)Cc2cccc(F)c2Cl)ccn1)c1cccc(F)c1F           pIC50            6.54
23  CC(=O)N(c1cc(C)cc(C#N)c1)c1cc(NC(=O)Cc2ccccc2Cl)ccn1           pIC50            6.29
24  CC(=O)N(c1cccc(F)c1)c1cc(NC(=O)Cc2ccc(F)cc2Cl)cnn1           pIC50            6.03
25  CC(=O)N(c1cc(NC(=O)Cc2cccc(F)c2Cl)ccn1)c1ccc(C(F)(F)F)cc1F           pIC50            6.03
26  CC(=O)N(c1cccc(Cl)c1)c1cc(NC(=O)Cc2ccc(F)cc2Cl)ccn1           pIC50            6.52
27  CC(=O)N(c1ccc(F)c(F)c1)c1cc(NC(=O)Cc2ccccc2OC(F)(F)F)ccn1           pIC50            6.40
28  CC(=O)N(c1cc(F)cc(F)c1)c1cc(NC(=O)Cc2ccccc2C(F)(F)F)ccn1           pIC50            6.50
29  CC(=O)N(c1cc(NC(=O)Cc2cccc(C(F)(F)F)c2Cl)ccn1)c1cccc(F)c1F           pIC50            6.07
30  CC(=O)N(c1cc(NC(=O)Cc2ccccc2Cl)ccn1)c1ccc(F)cc1Cl           pIC50            6.53
31  CC(=O)N(c1cc(NC(=O)Cc2ccc(F)cc2Cl)ccn1)c1ccc(F)cc1F           pIC50            6.55
32  CC(=O)N(c1ccccc1)c1cc(NC(=O)Cc2c(Cl)cccc2Cl)ccn1           pIC50            6.62
33  CC(=O)N(c1cccc(F)c1)c1cc(NC(=O)Cc2c(Cl)cccc2Cl)ccn1           pIC50            6.59
